Test system: XIP peptide (Xip251-270)
Assay: small-molecule binders of XIP peptide, primary screen, biochemical, small-molecule microarray, fluorescence 635/667 nm, 0.5 µg/mL protein (AID 1183)
Conditions: small-molecule microarray binding, fluorescence 635 nm; higher = more signal
Property: composite z-score
In your answer, state the number alone without any accompanying words.

// worked examples, composite z-score included
Compound	Study target	Property	Result
O=C1[C@H]2[C@H]3[C@H](O)[C@H](O)CC(=NOC[C@@H](O)COCc4ccco4)[C@H]3CC[C@H]2C(=O)N1C1CCCCC1	XIP peptide (Xip251-270)	composite z-score	-0.37
COCCNC(=O)OCC1CCCC2(CC(OC(=O)NCCc3ccc(F)cc3)CC(CCC(=O)N[C@@H](C)C(=O)OC)O2)O1 (some centres undefined)	XIP peptide (Xip251-270)	composite z-score	0.579
CC(=O)C[C@H](O)[C@@H](NC(=O)OC(C)(C)C)C(C)C	XIP peptide (Xip251-270)	composite z-score	-0.161
COc1ccc(O[C@H]2C=C[C@@H](c3ccccc3)O[C@@H]2COC(=O)N2CCCCC2)cc1	XIP peptide (Xip251-270)	composite z-score	-0.216

[Q] What is its composite z-score for XIP peptide (Xip251-270)? Entry: CCCNC(=O)OC[C@H]1O[C@H](CCON=CC[C@@H]2C=C[C@H](OC(C)=O)[C@@H](COC(C)=O)O2)C=C[C@@H]1Oc1ccc(OC)cc1
[A] 0.512

[Q] Input CC(CCC(=O)OC[C@H]1O[C@H](C#Cc2ccccc2)C=C[C@@H]1Oc1ccc(C)cc1)=NO[C@@H](C)c1cn([C@H](CO)Cc2ccccc2)nn1
[A] 0.54

[Q] Input CC(C)NC(=O)[C@@H]1c2ccccc2C(=O)N(CC23CC4CC(CC(C4)C2)C3)[C@H]1c1ccc(CO)cc1
[A] 0.661

[Q] Input Cc1ccc(C2CC=C(C(=O)O)CN2S(=O)(=O)c2ccc(C)cc2)cc1 (centres undefined)
[A] 0.912

[Q] Input CN(C)c1ccc(C(O)C2C=CC3C(=O)N(c4ccccc4)C(=O)C3N2Nc2ccccc2F)cc1 (centres undefined)
[A] 0.265
